target-desc: V2 receptor (Rattus norvegicus, UniProt Q00788)
Construct: Using rat kidney plasma membrane preparations
Sequence (Q00788 whole entry): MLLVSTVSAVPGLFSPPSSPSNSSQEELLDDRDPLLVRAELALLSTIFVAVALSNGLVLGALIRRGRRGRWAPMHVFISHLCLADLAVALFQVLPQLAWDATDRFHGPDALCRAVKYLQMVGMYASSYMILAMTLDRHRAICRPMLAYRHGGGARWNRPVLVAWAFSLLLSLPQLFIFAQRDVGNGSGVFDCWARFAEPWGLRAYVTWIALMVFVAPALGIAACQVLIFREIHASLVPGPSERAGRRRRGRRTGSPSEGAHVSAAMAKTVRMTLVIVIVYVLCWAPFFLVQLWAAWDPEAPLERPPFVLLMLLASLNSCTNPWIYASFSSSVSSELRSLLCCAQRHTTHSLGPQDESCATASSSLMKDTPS
test-description: biochemical
setup-conditions: rat kidney plasma membrane, [3H]-Arg-vasopressin, 4° C., pH 8.0, read-out: IC50 in V2 receptor binding assay
pIC50: −log10 of the molar value. Counter-ions that a name gives are not always drawn.
Listing: pIC50 of selected molecules
measure: pIC50

>>> observed_result("C=CCOC1CCCN(C(=O)c2ccc(NC(=O)c3ccccc3Br)nc2)c2ccc(Cl)cc21 (stereo not drawn) [Compound of Ex. 76]")
8.10
>>> observed_result("CCN(CC)CCN(C)C(=O)COC1CCCN(C(=O)c2ccc(NC(=O)c3ccccc3Cl)nc2)c2ccc(Cl)cc21 (stereo not drawn) [Compound of Ex. 175]")
8.57
>>> observed_result("CC(=O)NCCC1CCCN(C(=O)c2ccc(NC(=O)c3ccccc3C)nc2)c2ccc(Cl)cc21 (stereo not drawn) [Compound of Ex. 143]")
8.51
>>> observed_result("Cc1ccccc1C(=O)Nc1ccc(C(=O)N2CCCC(O)c3cc(Cl)ccc32)cn1 (stereo not drawn) [Compound of Ex. 25]")
8.40
>>> observed_result("COc1ccccc1C(=O)Nc1ccc(C(=O)N2CCCC(O)c3cc(Cl)ccc32)cn1 (stereo not drawn) [Compound of Ex. 28]")
6.77
>>> observed_result("Cc1ccccc1C(=O)Nc1ccc(C(=O)N2CCCC(CCn3cncn3)c3cc(Cl)ccc32)cn1 (stereo not drawn) [Compound of Ex. 140]")
8.25
>>> observed_result("O=C(Nc1ccc(C(=O)N2CCCCc3cc(Cl)ccc32)cn1)c1ccccc1OCCO [Compound of Ex. 83]")
6.37
>>> observed_result("Cc1ccccc1C(=O)Nc1ccc(C(=O)N2CCN(C)Cc3cc(Cl)ccc32)cn1 [Compound of Ex. 47]")
7.05
>>> observed_result("Cc1ccccc1C(=O)Nc1ccc(C(=O)N2CCCC(OCC(=O)N3CCN(C)CC3)c3cc(Cl)ccc32)cn1 (stereo not drawn) [Compound of Ex. 35]")
8.15
>>> observed_result("O=C(Nc1ccc(C(=O)N2CCCC(CCn3ccnc3)c3cc(Cl)ccc32)cn1)c1ccccc1Cl (stereo not drawn) [Compound of Ex. 129]")
8.32
>>> observed_result("Cc1ccccc1C(=O)Nc1ccc(C(=O)N2CCCC(CC(=O)N3CCCCC3)c3cc(Cl)ccc32)cn1 (stereo not drawn) [Compound of Ex. 104]")
7.62
>>> observed_result("Cc1ccccc1C(=O)Nc1ccc(C(=O)N2CCCC(OCCN(C)C)c3cc(Cl)ccc32)cn1 (stereo not drawn) [Compound of Ex. 37]")
8.30
>>> observed_result("CN(C)CCOc1ccccc1C(=O)Nc1ccc(C(=O)N2CCCCc3cc(Cl)ccc32)cn1 [Compound of Ex. 96, dihydrochloride]")
6.52
>>> observed_result("O=C(Nc1ccc(C(=O)N2CCCC(CCN3CCCC3)c3cc(Cl)ccc32)cn1)c1ccccc1Cl (stereo not drawn) [Compound of Ex. 126]")
8.28
>>> observed_result("O=C(Nc1ccc(C(=O)N2CCCCc3cc(Cl)ccc32)cn1)c1ccccc1Cl [Compound of Ex. 44]")
7.96

###

target-desc: V1 receptor (Rattus norvegicus)
Sequence (P30560 whole entry): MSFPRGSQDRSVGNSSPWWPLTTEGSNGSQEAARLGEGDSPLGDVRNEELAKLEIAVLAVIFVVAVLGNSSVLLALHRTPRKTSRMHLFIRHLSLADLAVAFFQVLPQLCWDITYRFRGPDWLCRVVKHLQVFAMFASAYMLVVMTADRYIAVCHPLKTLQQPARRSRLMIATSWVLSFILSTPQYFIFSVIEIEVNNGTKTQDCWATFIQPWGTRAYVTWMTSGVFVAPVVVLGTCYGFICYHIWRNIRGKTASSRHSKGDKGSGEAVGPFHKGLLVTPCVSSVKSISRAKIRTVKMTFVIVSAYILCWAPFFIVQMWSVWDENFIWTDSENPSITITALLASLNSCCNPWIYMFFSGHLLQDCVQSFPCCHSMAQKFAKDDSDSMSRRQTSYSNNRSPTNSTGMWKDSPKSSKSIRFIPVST
test-description: biochemical
setup-conditions: rat liver plasma membrane, [3H]-Arg-vasopressin, 37° C., 10 minutes, pH 8.0; read-out: IC50 in V1 receptor binding assay
pIC50: −log10 of the molar value.
measure: pIC50

>>> observed_result("Cc1ccccc1C(=O)Nc1ccc(C(=O)N2CCCC(CC(=O)O)c3cc(Cl)ccc32)cn1 (stereo not drawn)")
6.04
>>> observed_result("Cc1ccccc1CC(=O)Nc1ccc(C(=O)N2CCCC(O)c3cc(Cl)ccc32)cn1 (stereo not drawn)")
8.15
>>> observed_result("Cc1ccccc1C(=O)Nc1ccc(C(=O)N2CCCC(CCn3cncn3)c3cc(Cl)ccc32)cn1 (stereo not drawn)")
7.51
>>> observed_result("CC(=O)NC1CCN(CCOc2ccccc2C(=O)Nc2ccc(C(=O)N3CCCCc4cc(Cl)ccc43)cn2)CC1")
7.22
>>> observed_result("Cc1ccccc1C(=O)Nc1ccc(C(=O)N2CCCC(OCCN(C)C)c3cc(Cl)ccc32)cn1 (stereo not drawn)")
7.96
>>> observed_result("Cc1ccccc1C(=O)Nc1ccc(C(=O)N2CCCC(OCCO)c3cc(Cl)ccc32)cn1 (stereo not drawn)")
7.37
>>> observed_result("CN1CCCN(C(=O)c2ccc(NC(=O)c3ccccc3Cl)nc2)c2ccc(Cl)cc21")
7.26
>>> observed_result("O=C(Nc1ccc(C(=O)N2CCCC(NC3CC3)c3cc(Cl)ccc32)cn1)c1ccccc1Cl (stereo not drawn)")
7.77
>>> observed_result("Cc1ccccc1C(=O)Nc1ccc(C(=O)N2CCCC(CC(N)=O)c3cc(Cl)ccc32)cn1 (stereo not drawn)")
7.36
>>> observed_result("O=C(Nc1ccc(C(=O)N2CCCC(O)c3cc(Cl)ccc32)cn1)C1CCCCC1 (stereo not drawn)")
7.92
>>> observed_result("Cc1ccccc1C(=O)Nc1ccc(C(=O)N2CCCC(OCCN3CCOCC3)c3cc(Cl)ccc32)cn1 (stereo not drawn)")
7.55
>>> observed_result("O=C(Nc1ccc(C(=O)N2CCCC(CC(=O)N3CCNCC3)c3cc(Cl)ccc32)cn1)c1ccccc1Cl (stereo not drawn)")
7.92
>>> observed_result("Cc1ccccc1C(=O)Nc1ccc(C(=O)N2CCCC(CC(=O)N3CCCCC3)c3cc(Cl)ccc32)cn1 (stereo not drawn)")
7.42
>>> observed_result("CN(C)C(=O)COC1CCCN(C(=O)c2ccc(NC(=O)c3ccccc3Cl)nc2)c2ccc(Cl)cc21 (stereo not drawn)")
7.62
>>> observed_result("CC(=O)N1CCN(CCC2CCCN(C(=O)c3ccc(NC(=O)c4ccccc4Cl)nc3)c3ccc(Cl)cc32)CC1 (stereo not drawn)")
7.80

Value source: patent US5498609A
